- test details: gradient 5% acetonitrile 3 min, to 50% in 2 min, to 85% in 15 min, held 3 min, 100 µL/min
- condition context: column: Zorbax Extend-C18 2.1 x 50 mm; eluents: water / acetonitrile, 0.1% formic acid
experimental endpoint: RP-LC retention time (s)
Your answer is read as s, so omit the unit and give the number.

Below, 5 compounds whose answers are already recorded.
Can you look up the measured RP-LC retention time of Cc1ccc(C(C)NC(=O)C2CCCN(c3cnc4nccnc4c3)C2)c(C)c1 (stereo not drawn) for me? 809

Recorded RP-LC retention time for Cc1ccc(NC(=O)c2nc(C(C)C)oc2C)c(C)c1 , please? 1190

Data request, read-out RP-LC retention time, for Cn1cnc2ccc(-c3noc(CNS(=O)(=O)c4ccccc4)n3)cc21 739

Need RP-LC retention time of CCCn1cc(CCNS(=O)(=O)c2ccc(C(C)(C)C)cc2)c2cccnc21 , thanks. 1070

Fill in: RP-LC retention time of COc1ccc(NC(=O)C2CC(=O)N(c3cccc(NC(C)=O)c3)C2)cc1Cl (stereo not drawn) is ___ 709

Could you now look at the following compound, please?
If you can, please state the reported RP-LC retention time value of COC(=O)c1c(NC(C)c2ccccc2)c2cccc(Cl)c2[nH]c1=O (stereo not drawn) . 864
